- assay_system: hM1 (human Muscarinic receptor subtype 1) (Homo sapiens)
- Construct: expressed in transfected cells; host or cells: CHO cells (Chinese hamster ovary cells, ATCC)
- Sequence (P11229 whole entry): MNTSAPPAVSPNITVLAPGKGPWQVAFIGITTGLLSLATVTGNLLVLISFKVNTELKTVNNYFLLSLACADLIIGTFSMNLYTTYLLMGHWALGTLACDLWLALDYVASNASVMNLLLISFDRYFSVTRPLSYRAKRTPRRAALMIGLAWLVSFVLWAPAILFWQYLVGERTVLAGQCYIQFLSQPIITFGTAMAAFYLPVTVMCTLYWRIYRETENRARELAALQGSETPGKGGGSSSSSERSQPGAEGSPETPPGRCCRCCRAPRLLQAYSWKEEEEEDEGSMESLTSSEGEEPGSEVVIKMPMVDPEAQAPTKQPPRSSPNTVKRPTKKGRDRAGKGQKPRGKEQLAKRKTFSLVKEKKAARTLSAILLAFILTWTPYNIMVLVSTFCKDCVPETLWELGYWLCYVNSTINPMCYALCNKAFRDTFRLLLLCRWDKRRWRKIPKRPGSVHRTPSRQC
- assay_info: Human M1 calcium mobilization FLIPR assay
- Assay type: cell-based
- condition_set: read-out: hM1 EC50 values
Reported EC50 is given for each of the following molecules.

>  <structure_smiles>
CC(C)(C)OC(=O)N1CCC(N2CCC(N3C(=O)CO[C@H]4CCCC[C@@H]43)CC2)CC1

>  <EC50>
> 2.89 µM

$$$$
>  <structure_smiles>
CC(C)OC(=O)N1CC[C@H](N2CCC(N3C(=O)CO[C@H]4CCCC[C@@H]43)CC2)C1

>  <EC50>
> 2.89 µM

$$$$
>  <structure_smiles>
COC(=O)N1CCC(N2CCC(N3C(=O)OC[C@H]4CCCC[C@@H]43)CC2)CC1

>  <EC50>
> 2.89 µM

$$$$
>  <structure_smiles>
CC(C)OC(=O)N1CCC(C)(N2CCC(N3C(=O)CN[C@H]4CCCC[C@@H]43)CC2)CC1

>  <EC50>
> 2.89 µM

$$$$
>  <structure_smiles>
Cc1ccccc1C(=O)N1CCC(N2CCC(N3C(=O)OC[C@H]4CCCC[C@@H]43)CC2)CC1

>  <EC50>
> 2.89 µM

$$$$
>  <structure_smiles>
CC(C)(C)OC(=O)N1CCC(N2CCC(N3C(=O)OC[C@@H]4CCCC[C@H]43)CC2)CC1

>  <EC50>
> 2.89 µM

$$$$
>  <structure_smiles>
CC(C)OC(=O)N1CCC(C)(N2CCC(N3C(=O)CO[C@H]4CCCC[C@@H]43)CC2)CC1

>  <EC50>
> 2.89 µM

$$$$

Where do the numbers come from? From patent US20090221567A1.
